Below, each of the compounds is paired with its reported GI50 value.
# System: SN12C
# protocol.description: NCI tumour cell line growth inhibition, 48 h
The source made the active and inactive calls. Cut-off read from the data, not from the text of the source: active = GI50 up to about 1.1 µM and inactive = higher.
value.type: GI50

{"columns": ["compound", "value.type", "result"],
 "data": [
  ["COC(=O)[C@@H]1C[C@@H]2c3ccccc3N(S(=O)(=O)c3ccccc3)[C@@H]2N1C(=O)OC", "GI50", "> 100 µM (inactive)"],
  ["O=C(NC1CCCCC1)c1nn[nH]c1Cl", "GI50", "> 100 µM (inactive)"],
  ["Clc1ccc2oc(CCc3ccccc3)nc2c1", "GI50", "66.1 µM (inactive)"],
  ["CCOC(=O)C1C(c2ccc(OC)cc2)c2c(n[nH]c2O)CC1(O)OCC (stereo unspecified)", "GI50", "> 100 µM (inactive)"],
  ["Cc1ccccc1C(=O)c1cc(O)ccc1O", "GI50", "> 100 µM (inactive)"],
  ["CC(C(=O)O)C(C)(O)C(=O)O (stereo unspecified)", "GI50", "> 100 µM (inactive)"]
]}

====

Below, each of the molecules is paired with its reported GI50 value.
# Tested on: NCI/ADR-RES
# protocol.description: NCI tumour cell line growth inhibition, 48 h
Active and inactive are the calls of the source. Cut-off read from the data, not from the text of the source: active = GI50 up to about 1.1 µM and inactive = higher.
value.type: GI50

{"columns": ["molecule", "value.type", "result"],
 "data": [
  ["O=C(NC1CCCCC1)c1nn[nH]c1Cl", "GI50", "> 100 µM (inactive)"],
  ["CC1CCC(O)(C(C)(C(=O)O)c2ccccc2)CC1 (stereo not given)", "GI50", "> 100 µM (inactive)"],
  ["COc1cc(OC)c2c3c(OC)cc(OC)c4c(=O)c(O)c(C[C@@H](C)O)c(c5c(C[C@@H](C)O)c(O)c(=O)c1c25)c43", "GI50", "30.3 µM (inactive)"],
  ["NCCSCCc1ccccc1", "GI50", "> 100 µM (inactive)"],
  ["CCOC(=O)c1c(N2CCCC2)[nH]c(=O)c(C(c2ccc(N(C)C)cc2)c2c(O)c(C(=O)OCC)c(N3CCCC3)[nH]c2=O)c1O", "GI50", "> 100 µM (inactive)"]
]}

====

# Test system: LOX IMVI
# protocol.description: NCI tumour cell line growth inhibition, 48 h
Calls of active or inactive are those of the source. Rule as the data show it: active = GI50 up to about 1.1 µM and inactive = higher.
Below, each of the compounds is paired with its reported GI50 value.
value.type: GI50

{"columns": ["compound", "value.type", "result"],
 "data": [
  ["Cc1ccc(S(=O)(=O)O/N=C2\\CCC\\C2=C/c2ccccc2)cc1", "GI50", "25.9 µM (inactive)"],
  ["Cc1cccc(C)c1N1C(=O)C(=O)C(c2nc3ccccc3s2)/C(=N/NC(=O)c2ccccc2O)C1=O (stereo not given)", "GI50", "24.4 µM (inactive)"],
  ["C/C(=N\\NC(N)=S)c1ccc(/C(C)=N/NC(N)=S)cc1", "GI50", "> 100 µM (inactive)"],
  ["CC(C)CC1NC(=O)C(C(C)C)NC(=O)CC(C)COC(=O)C(CC(C)C)N(C)C(=O)C(C(C)C)NC(=O)C(C(C)C)OC1=O (stereo not given)", "GI50", "23.5 µM (inactive)"],
  ["CC(=O)OC12c3ccccc3C(c3ccccc31)C1C(=O)N(N=C(C)C)C(=O)C12 (stereo not given)", "GI50", "> 100 µM (inactive)"]
]}

====

# Test system: KM-20L2
# protocol.description: NCI tumour cell line growth inhibition, 48 h
The source made the active and inactive calls. No stated cut-off is given here; in the data, active = GI50 up to about 1.1 µM and inactive = higher.
Labels: 1 for active, -1 for inactive

{"columns": ["compound", "group"],
 "data": [
  ["CCOC(=O)[C@@]1(C)C=C2O[C@@H]3OC4(CCCCC4)O[C@@H]3C2=C2C(O)=CC=C(O)[C@]21C(=O)OC", -1],
  ["COc1ccc2c(c1)CCCC1C3=NCCC3(C)CSC21 (stereo not given)", -1],
  ["C1CSC(=[N+]2CC[N+](=C3SCCS3)CC2)S1", -1],
  ["COC(=O)/C(=N\\Nc1nnc(C)n1N)C(C#N)c1ccccc1 (stereo not given)", -1],
  ["C[C@]12CCC(=O)C(O)=C1CCC2=O", -1],
  ["c1cc(C2O[C@H]3CCCN3[C@@H]2c2ccncc2)ccn1 (stereo not given in full)", -1],
  ["COC(=O)/C(=N/O)C(C(=O)C=C(C)C)C(=O)C(=O)Nc1nc2ccc([N+](=O)[O-])cc2s1 (stereo not given)", -1],
  ["C/C=C1\\C[C@@H]2C(OC)Nc3cc(O)c(OC)cc3C(=O)N2C1 (stereo not given in full)", 1],
  ["OCC(O)C(O)c1nn(-c2ccccc2)c2nc3cc(Cl)c(Cl)cc3nc12 (stereo not given)", -1],
  ["Cc1ccccc1C(=O)c1cc(O)ccc1O", -1]
]}

====

# System: K562
# protocol.description: NCI tumour cell line growth inhibition, 48 h
The source made the active and inactive calls. Rule as the data show it: active = GI50 up to about 1.1 µM and inactive = higher.
Labels: Y (active), N (inactive)

{"columns": ["compound", "experimental.target", "group"],
 "data": [
  ["CC1=C(/C=C/C(C)=C/C2CC(N(C)C)=CC(=O)O2)C(C)(C)CCC1 (centres undefined)", "K562", "N"],
  ["NNc1nnc(-c2nnc(NN)o2)o1", "K562", "N"],
  ["CCCCCCNCCCNc1c2ccccc2nc2cccc([N+](=O)[O-])c12", "K562", "Y"],
  ["COc1ccc(/N=N/c2ccc3oc(=O)c(C(=O)Nc4ccc(OC)cc4)cc3c2)cc1", "K562", "N"],
  ["COC(=O)C(/C(=N/N)C(=O)Nc1ccc(C)c(C)c1)c1nc2ccc(Cl)cc2nc1O (centres undefined)", "K562", "N"],
  ["Cc1cc(NS(=O)(=O)c2ccc(Nc3c4ccccc4nc4c(C(=O)Nc5ccc(S(=O)(=O)N=C(N)N)cc5)cccc34)cc2)no1", "K562", "N"],
  ["Cc1ccc(N2C(=O)C=C(C3=C(O)C(=O)N(c4ccc(C)cc4)C3=O)C2=O)cc1", "K562", "N"],
  ["COc1cccc2c1C(=O)c1c(O)c3c(c(O)c1C2=O)C[C@@](O)(C(=O)CN1CCOCC1)C[C@@H]3OC1CC(N)C(O)C(C)O1 (some centres undefined)", "K562", "N"],
  ["COC(=O)C1=C(C(=O)OC)C(OO)(c2ccccc2)OC1=O (centres undefined)", "K562", "N"]
]}

====

# Tested on: UO-31
# protocol.description: NCI tumour cell line growth inhibition, 48 h
Calls of active or inactive are those of the source. Rule as the data show it: active = GI50 up to about 1.1 µM and inactive = higher.
Labels: true = active, false = inactive

{"columns": ["compound", "group"],
 "data": [
  ["COc1c(OC(C)=O)c(OC(C)=O)cc2c1-c1ccc(SC)c(=O)cc1C(NC(C)=O)CC2 (configuration not stated)", "false"],
  ["CC(=O)N1C(Nc2ccccc2)CCN1c1ccccc1 (configuration not stated)", "false"],
  ["COc1ccc(C(O)c2cc(OC)c(OC)c(OC)c2)cc1 (configuration not stated)", "false"],
  ["NS(=O)(=O)c1nnc(NS(=O)(=O)c2ccccc2[N+](=O)[O-])s1", "false"],
  ["Cn1c(-c2cccs2)cc(-c2ccccc2)c1-c1cccs1", "false"],
  ["CCN(CC)CCCC(C)Nc1c2ccc(Cl)cc2nc2cc(Cl)ccc12 (configuration not stated)", "false"],
  ["COc1cc(S(=O)(=O)Nc2nc(-c3ccc(N)cc3)cs2)ccc1Cl", "false"],
  ["C=C(C)C1CC2(C)C(C)CC(OC(=O)/C(C)=C\\C)CC2C(OC(=O)/C(C)=C\\C)C1O (configuration not stated)", "false"],
  ["C[C@]12CCC(=O)C(O)=C1CCC2=O", "false"],
  ["COc1nc2c(nc(N)n2C2OC(CO)C(O)C(O)C2O)c(=O)n1C (configuration not stated)", "false"],
  ["CCC1(Br)C(=O)NC(=O)N(C2CC(O)C(CO)O2)C1N=[N+]=[N-] (configuration not stated)", "false"],
  ["C=C[C@@]1(O)CCCC[C@@H]1CC(Sc1ccccc1)Sc1ccccc1", "false"],
  ["CCCCCCCCCCCCCCCC(=O)N[C@H]1CCc2cc(OC)c(OC)c(OC)c2-c2ccc(SC)c(=O)cc21", "false"],
  ["COc1ccc(C2COc3cc(OC(C)=O)c(OC(C)=O)cc3C2)cc1 (configuration not stated)", "false"],
  ["CC(=O)Nc1ccc(SC#N)c2c(NC(C)=O)cccc12", "false"],
  ["CC(=O)/C(=C/NC(=S)Nc1ccccc1)C(=O)Nc1ccccc1C", "false"],
  ["C=C(C)[C@@]1(O)O[C@H]2C[C@@]3(C)OC(=CC3=O)/C(C)=C\\[C@@H]3OC(=O)[C@@]1(C)[C@H]32", "false"],
  ["CC1=CC(=O)/C(=C/NC(=S)NCc2ccccc2)C(=O)O1", "false"],
  ["O=c1cnn(C/C=C/CBr)c(=O)[nH]1", "false"],
  ["O=C1C=C(c2c(O)ccc3ccccc23)c2ccccc2C1=O", "false"],
  ["C/C=C1\\C[C@@H]2C(OC)Nc3cc(O)c(OC)cc3C(=O)N2C1 (some centres not stated)", "true"],
  ["CCOC(=O)c1ccc(C(=O)/C(C(=O)OC(C)(C)C)=C2\\CCCN2C)n1C", "false"]
]}
